Recorded values, source patent US20220267441A1.

# key: entry, value: koff
biological target: purified rhesus CD45 ectodomain (rhesus macaque); experiment: BLI (Octet Red96), IgG on anti-human Fc sensor, 50 nM CD45 ectodomain, 1:1 fit
Sequence (chain, as listed by the source limits assumed, form in doubt): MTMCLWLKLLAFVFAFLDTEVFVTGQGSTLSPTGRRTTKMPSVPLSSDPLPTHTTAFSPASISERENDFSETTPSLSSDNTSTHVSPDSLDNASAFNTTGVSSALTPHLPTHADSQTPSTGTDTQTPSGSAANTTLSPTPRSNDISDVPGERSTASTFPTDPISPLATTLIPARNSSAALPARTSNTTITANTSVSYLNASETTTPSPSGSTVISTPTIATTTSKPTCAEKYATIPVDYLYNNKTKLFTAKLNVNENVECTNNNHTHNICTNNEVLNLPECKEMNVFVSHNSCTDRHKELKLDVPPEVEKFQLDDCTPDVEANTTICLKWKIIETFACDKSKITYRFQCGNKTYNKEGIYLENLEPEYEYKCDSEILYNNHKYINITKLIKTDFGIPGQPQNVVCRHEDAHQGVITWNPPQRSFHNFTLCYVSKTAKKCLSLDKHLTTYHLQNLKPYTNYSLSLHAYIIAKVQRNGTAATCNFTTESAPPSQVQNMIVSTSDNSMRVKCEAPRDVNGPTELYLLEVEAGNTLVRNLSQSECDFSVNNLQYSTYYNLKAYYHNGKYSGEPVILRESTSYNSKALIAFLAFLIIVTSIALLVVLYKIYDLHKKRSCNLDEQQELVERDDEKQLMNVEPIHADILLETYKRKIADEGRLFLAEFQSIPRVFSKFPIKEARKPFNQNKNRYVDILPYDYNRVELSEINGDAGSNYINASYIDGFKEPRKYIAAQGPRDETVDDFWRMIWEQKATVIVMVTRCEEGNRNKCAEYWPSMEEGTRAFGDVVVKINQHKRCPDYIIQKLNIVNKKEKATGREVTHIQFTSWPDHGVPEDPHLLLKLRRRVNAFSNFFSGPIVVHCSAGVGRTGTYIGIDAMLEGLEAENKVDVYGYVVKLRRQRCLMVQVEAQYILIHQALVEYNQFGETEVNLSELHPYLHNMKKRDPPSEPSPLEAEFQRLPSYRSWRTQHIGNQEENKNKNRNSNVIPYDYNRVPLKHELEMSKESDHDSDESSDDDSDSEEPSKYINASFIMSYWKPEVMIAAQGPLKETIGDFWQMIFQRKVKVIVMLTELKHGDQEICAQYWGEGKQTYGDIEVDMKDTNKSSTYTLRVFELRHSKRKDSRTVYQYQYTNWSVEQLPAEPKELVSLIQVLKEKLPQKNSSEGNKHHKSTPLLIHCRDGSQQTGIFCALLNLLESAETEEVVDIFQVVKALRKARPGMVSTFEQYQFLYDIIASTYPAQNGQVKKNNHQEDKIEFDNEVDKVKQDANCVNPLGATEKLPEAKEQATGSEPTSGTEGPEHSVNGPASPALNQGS

BINDER	koff / s⁻¹
Antibody 3 (Ab3) (antibody, V domains shown) VH: QVQLVESGGGLVKPGGSLRLSCAASGFTFGGYSMNWVRQAPGKGLEWVSYISISGATITYADSVKGRFTISRDNAKNSLYLQMNSLRAEDTAVYYCARGGQYYYDSSDYGEVAFDIWGQGTMVTVSS VL: DIVMTQSPLSLPVTPGEPASISCRSSQSLVSNGYNYLDWYLQKPGQSPQLLIYFGSSRASGVPDRFSGSGSGTDFTLKISRVEAEDVGVYYCMQRRRTPPFTFGGGTKVEIK	0.000222
Antibody 2 (Ab2) (antibody, V domains shown) VH: EVQLVESGGGLVQPGGSLRLSCAASGFTFEAYSMNWVRQAPGKGLEWVSYISLSGATIHYADSVKGRFTISRDNAKNSLYLQMNSLRAEDTAVYYCARGGQYYYDSSDYGEVAFDIWGQGTMVTVSS VL: DIVMTQSPLSLPVTPGEPASISCRSSQSLVSNGYNYLDWYLQKPGQSPQLLIYFGSSRASGVPDRFSGSGSGTDFTLKISRVEAEDVGVYYCMQRRRTPWSFGGGTKVEIK	0.000192
Antibody 5 (Ab5) (antibody, V domains shown) VH: EVQLVESGGGLVQPGGSLRLSCAASGFTFEAYSMNWVRQAPGKGLEWVSYISLSGATIHYADSVKGRFTISRDNAKNSLYLQMNSLRAEDTAVYYCARGGQYYYTSSDYGEVAFDIWGQGTMVTVSS VL: DIVMTQSPLSLPVTPGEPASISCRSSQSLVSSGYNYLDWYLQKPGQSPQLLIYFGSSRASGVPDRFSGSGSGTDFTLKISRVEAEDVGVYYCMQRRRTPWSFGGGTKVEIK	0.000193
Antibody 7 (Ab7) (antibody, V domains shown) VH: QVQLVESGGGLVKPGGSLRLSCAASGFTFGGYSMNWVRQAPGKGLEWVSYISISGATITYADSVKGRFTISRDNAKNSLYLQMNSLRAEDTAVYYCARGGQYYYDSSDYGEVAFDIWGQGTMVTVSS VL: DIVMTQSPLSLPVTPGEPASISCRSSQSLVSSGYNYLDWYLQKPGQSPQLLIYFGSSRASGVPDRFSGSGSGTDFTLKISRVEAEDVGVYYCMQRRRTPPFTFGGGTKVEIK	0.000544
Antibody 4 (Ab4) (antibody, V domains shown) VH: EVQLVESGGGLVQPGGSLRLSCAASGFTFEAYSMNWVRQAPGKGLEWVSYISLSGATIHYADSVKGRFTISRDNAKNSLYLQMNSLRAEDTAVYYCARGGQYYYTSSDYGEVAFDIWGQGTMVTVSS VL: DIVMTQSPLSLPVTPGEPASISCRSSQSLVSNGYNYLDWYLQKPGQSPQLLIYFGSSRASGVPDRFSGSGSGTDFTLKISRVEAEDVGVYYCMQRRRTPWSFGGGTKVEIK	0.000102
Antibody 6 (Ab6) (antibody, V domains shown) VH: EVQLVESGGGLVQPGGSLRLSCAASGFTFEAYSMNWVRQAPGKGLEWVSYISLSGATIHYADSVKGRFTISRDNAKNSLYLQMNSLRAEDTAVYYCARGGQYYYTSSDYGEVAFDIWGQGTLVTVSS VL: DIVLTQSPLSLPVTPGEPASISCRSSQSLVSSGYNYLDWYLQKPGQSPQLLIYFGSSRASGVPDRFSGSGSGTDFTLKISRVEAEDVGVYYCMQRRRTPWSFGGGTKVEIK	0.000175
